System Name: fibrinogen receptor (GPIIb-IIIa) (Homo sapiens, UniProt P05106+P08514)
Construct: The lectin-retained GPIIb-IIIa was eluted with buffer A containing 10% dextrose; tissue Red Cross
Sequence (P08514 32-887 limits assumed): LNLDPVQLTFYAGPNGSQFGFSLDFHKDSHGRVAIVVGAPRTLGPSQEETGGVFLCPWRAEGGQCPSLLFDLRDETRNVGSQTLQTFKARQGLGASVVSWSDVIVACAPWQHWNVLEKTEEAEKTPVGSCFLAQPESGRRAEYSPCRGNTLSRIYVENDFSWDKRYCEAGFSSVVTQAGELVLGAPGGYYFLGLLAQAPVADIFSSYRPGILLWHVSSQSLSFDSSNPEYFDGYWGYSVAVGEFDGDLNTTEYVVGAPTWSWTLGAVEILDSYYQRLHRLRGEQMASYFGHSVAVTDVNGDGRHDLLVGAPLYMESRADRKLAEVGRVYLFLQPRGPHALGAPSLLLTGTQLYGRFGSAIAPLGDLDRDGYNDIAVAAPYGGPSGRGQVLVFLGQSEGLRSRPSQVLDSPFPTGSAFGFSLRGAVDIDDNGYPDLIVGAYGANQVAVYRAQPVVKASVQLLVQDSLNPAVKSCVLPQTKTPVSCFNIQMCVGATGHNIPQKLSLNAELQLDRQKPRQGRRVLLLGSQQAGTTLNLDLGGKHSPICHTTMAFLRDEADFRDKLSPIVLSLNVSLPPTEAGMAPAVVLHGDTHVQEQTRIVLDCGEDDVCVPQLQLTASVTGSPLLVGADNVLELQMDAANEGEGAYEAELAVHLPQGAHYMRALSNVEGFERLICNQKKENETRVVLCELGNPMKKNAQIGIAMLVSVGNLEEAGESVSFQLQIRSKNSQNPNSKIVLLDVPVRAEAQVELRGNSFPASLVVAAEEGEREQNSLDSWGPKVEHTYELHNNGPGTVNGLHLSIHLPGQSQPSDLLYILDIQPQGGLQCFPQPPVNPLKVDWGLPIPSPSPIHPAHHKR
Sequence (P08514 891-1039 limits assumed): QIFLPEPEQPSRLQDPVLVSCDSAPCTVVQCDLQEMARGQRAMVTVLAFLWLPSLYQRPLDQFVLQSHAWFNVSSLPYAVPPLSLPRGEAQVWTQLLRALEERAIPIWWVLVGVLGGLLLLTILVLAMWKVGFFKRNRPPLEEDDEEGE
Sequence (P05106 27-788): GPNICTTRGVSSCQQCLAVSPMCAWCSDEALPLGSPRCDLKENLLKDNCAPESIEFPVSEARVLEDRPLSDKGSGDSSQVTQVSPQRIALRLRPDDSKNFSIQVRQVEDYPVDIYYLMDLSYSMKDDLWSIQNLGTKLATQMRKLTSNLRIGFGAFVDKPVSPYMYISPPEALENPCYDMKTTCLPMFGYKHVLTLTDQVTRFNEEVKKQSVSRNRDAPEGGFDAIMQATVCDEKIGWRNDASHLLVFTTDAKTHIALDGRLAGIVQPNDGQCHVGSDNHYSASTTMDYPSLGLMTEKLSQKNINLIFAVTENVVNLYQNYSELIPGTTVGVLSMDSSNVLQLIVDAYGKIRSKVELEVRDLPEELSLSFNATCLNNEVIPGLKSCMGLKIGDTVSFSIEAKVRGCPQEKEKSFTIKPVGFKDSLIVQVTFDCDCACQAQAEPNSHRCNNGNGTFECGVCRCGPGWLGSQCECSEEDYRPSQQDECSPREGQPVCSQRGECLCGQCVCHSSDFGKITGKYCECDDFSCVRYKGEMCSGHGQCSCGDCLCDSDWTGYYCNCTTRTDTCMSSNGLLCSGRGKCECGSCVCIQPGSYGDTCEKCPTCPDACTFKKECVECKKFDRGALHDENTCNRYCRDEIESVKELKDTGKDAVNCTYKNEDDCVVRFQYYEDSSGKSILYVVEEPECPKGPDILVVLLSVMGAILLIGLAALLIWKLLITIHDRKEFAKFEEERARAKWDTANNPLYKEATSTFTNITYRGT
Procedure Summary: Competitive binding to GPIIb-IIIa using [3H]-SK&F-107260 as RGD-type ligand
Conditions Used: read-out: Ki for inhibition of [3H]-SK&F 107260 binding
pKi: −log10 of the molar value.

# Compound, pKi
data = [
    ("O=C(Nc1ccc(N2CCNCC2)cc1)C1CCN(C(C(=O)O)c2ccccc2)CC1 (stereo not shown) [Example 1]", "~8.46"),
]
